The measured values listed here are drawn from PubChem BioAssay.

Assay: compounds binding Alexa647 anti-His antibody – biochemical, small-molecule microarray, 635 nm fluorescence, artefact control for SMM control protein annotation, primary screen (AID 1128);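 further: score merges feature fluorescence with signal-to-noise for each printed compound spot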
Conditions: higher = more signal
Returns Criterion met if the recorded composite z-score is greater than or equal to 1, and Criterion not met otherwise.

C=CCN1Cc2ccccc2[C@H]2OC(c3ccc(OCCCO)cc3)=N[C@@]2(CCS(=O)(=O)c2ccccc2)C1=O Criterion met
C[C@]1(C(=O)O)c2ccccc2C(=O)N(Cc2cc(F)cc(C(F)(F)F)c2)[C@H]1c1ccc(CO)cc1 Criterion not met
COC(=O)[C@@]1(Cc2ccccc2)[C@H]2c3cc(C(=O)N(C)C)n(Cc4ccc(S(C)(=O)=O)cc4)c3C[C@H]2CN1C(=O)c1ccccc1 Criterion met
CC(C)NC(=O)[C@@]1(C)c2ccccc2C(=O)N(Cc2ccccc2)[C@H]1c1ccc(CO)cc1 Criterion met
CCCN1C(=O)[C@]2(CCC(=O)OC(C)(C)C)N=C(c3ccc(OCCCO)cc3)O[C@@H]2c2ccccc21 Criterion not met
CCOC(=O)C1=CC[C@@H](c2ccc(OC)cc2)N(S(=O)(=O)c2ccc(C)cc2)[C@H]1c1ccc(C)cc1 Criterion met
